Known Inhibition of HGF-induced phospho-c-Met IC50 (A549 cells) of a selection of binders
biological target: c-Met on tumor cell lines (A549, IM-95, SNU-5, SNU-620) (UniProt P08581 25-1390, limits assumed); test: cell-based or functional assay
Sequence (P08581 25-1390 limits assumed): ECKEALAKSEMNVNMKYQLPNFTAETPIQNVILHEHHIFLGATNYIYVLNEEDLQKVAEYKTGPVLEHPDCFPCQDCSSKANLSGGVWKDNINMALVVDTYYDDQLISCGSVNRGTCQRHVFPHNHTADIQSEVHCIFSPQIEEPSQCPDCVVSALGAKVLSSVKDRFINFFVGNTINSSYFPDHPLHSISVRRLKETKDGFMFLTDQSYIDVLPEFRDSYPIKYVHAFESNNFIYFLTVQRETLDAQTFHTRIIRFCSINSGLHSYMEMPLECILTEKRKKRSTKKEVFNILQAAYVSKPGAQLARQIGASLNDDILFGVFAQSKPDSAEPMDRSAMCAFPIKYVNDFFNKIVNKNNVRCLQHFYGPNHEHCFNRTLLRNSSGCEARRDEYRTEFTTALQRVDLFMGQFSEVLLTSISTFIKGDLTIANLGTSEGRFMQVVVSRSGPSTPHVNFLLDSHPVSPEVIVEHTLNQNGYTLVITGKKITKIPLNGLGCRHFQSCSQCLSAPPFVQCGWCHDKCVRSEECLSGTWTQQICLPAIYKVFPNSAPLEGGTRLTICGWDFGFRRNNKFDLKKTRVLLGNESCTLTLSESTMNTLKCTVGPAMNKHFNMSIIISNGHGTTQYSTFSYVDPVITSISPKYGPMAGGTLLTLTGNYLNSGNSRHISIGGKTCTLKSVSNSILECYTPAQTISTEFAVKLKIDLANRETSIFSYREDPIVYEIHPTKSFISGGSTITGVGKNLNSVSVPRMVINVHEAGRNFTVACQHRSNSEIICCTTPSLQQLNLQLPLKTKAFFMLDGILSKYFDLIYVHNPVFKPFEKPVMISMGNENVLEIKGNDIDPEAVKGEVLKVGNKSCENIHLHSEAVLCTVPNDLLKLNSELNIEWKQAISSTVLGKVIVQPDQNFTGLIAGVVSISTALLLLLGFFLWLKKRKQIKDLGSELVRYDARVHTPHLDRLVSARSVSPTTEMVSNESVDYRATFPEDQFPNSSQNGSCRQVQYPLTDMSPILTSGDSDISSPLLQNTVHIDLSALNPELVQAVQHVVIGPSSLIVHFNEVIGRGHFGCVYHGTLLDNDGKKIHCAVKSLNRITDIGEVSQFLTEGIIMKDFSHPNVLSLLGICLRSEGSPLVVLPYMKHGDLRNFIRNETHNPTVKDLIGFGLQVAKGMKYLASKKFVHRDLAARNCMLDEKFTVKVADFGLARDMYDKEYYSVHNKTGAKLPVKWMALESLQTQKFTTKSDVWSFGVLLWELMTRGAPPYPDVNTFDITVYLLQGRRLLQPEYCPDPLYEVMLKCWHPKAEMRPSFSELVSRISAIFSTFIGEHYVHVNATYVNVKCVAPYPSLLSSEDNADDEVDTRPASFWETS
Answer in nM, number only, no unit symbol.

| BINDER | READOUT_NUMBER |
| --- | --- |
| 5D5 Fab (Fab, V domains shown) VH: QVQLQQSGPELVRPGASVKMSCRASGYTFTSYWLHWVKQRPGQGLEWIGMIDPSNSDTRFNPNFKDKATLNVDRSSNTAYMLLSSLTSADSAVYYCATYGSYVSPLDYWGQGTSVTVSS VL: DFMMSQSPSSLTVSVGEKVTVSCKSSQSLLYTSSQKNYLAWYQQKPGQSPKLLIYWASTRESGVPDRFTGSGSGTDFTLTITSVKADDLAVYYCQQYYAYPWTFGGGTKLELKR | 5.9 |
| MetMAb1 (antibody, V domains shown, also called monovalent c-Met antibody MetMAb1) VH: EVQLVESGGGLVQPGGSLRLSCAASGYTFTSYWLHWVRQAPGKGLEWVGMIDPSNSDTRFNPNFKDRFTISADTSKNTAYLQMNSLRAEDTAVYYCATYRSYVTPLDYWGQGTLVTVSS VL: DIQMTQSPSSLSASVGDRVTITCKSSQSLLYTSSQKNYLAWYQQKPGKAPKLLIYWASTRESGVPSRFSGSGSGTDFTLTISSLQPEDFATYYCQQYYAYPWTFGQGTKVEIKR | 3.8 |
| anti-cMet h5D5 Fab-body (antibody, human IgG1, kappa, V domains shown, Monovalent Fab-Fc heterodimer: LFc chain (VL-CL-linker-Fc knob) and HFc chain (VH-CH1-linker-Fc hole)) VH: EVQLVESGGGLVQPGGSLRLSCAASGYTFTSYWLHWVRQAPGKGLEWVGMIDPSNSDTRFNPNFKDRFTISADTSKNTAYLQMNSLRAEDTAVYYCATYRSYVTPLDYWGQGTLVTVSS VL: DIQMTQSPSSLSASVGDRVTITCKSSQSLLYTSSQKNYLAWYQQKPGKAPKLLIYWASTRESGVPSRFSGSGSGTDFTLTISSLQPEDFATYYCQQYYAYPWTFGQGTKVEIKR | 2.6 |

Look up Inhibition of HGF-induced phospho-c-Met IC50 (A549 cells): Anti-human c-Met antibody 5D5 (antibody, V domains shown, VH and VL are those cloned from hybridoma HB-11895 (5D5.11.6); also called bivalent antibody 5D5) VH: QVQLQQSGPELVRPGASVKMSCRASGYTFTSYWLHWVKQRPGQGLEWIGMIDPSNSDTRFNPNFKDKATLNVDRSSNTAYMLLSSLTSADSAVYYCATYGSYVSPLDYWGQGTSVTVSS VL: DFMMSQSPSSLTVSVGEKVTVSCKSSQSLLYTSSQKNYLAWYQQKPGQSPKLLIYWASTRESGVPDRFTGSGSGTDFTLTITSVKADDLAVYYCQQYYAYPWTFGGGTKLELKR 1.4
